Let's look at some variants and their measured self-cleavage.
B1: CPEB3 Ribozyme (parent)
chain: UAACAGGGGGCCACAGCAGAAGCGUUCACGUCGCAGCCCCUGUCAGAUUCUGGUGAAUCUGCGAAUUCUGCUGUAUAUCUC

- Variants of: B1
- test: self-cleavage, relative activity (ratio to wild type); higher = more cleavage; in vitro, sequencing
quantity_measured: self-cleavage

- mutation_label: "C11G U58A"
  meas_value: 0.39
- mutation_label: "U1C U25G"
  meas_value: 0.22
- mutation_label: "A15G G33U"
  meas_value: 0.12
- mutation_label: "G53U U72A"
  meas_value: 0.94
- mutation_label: "A15U C37U"
  meas_value: 0.29
- mutation_label: "A13G A47G"
  meas_value: 0.86
- mutation_label: "A3U G22A"
  meas_value: 0.45
- mutation_label: "U31C A57C"
  meas_value: 0.49
- mutation_label: "A18G U76C"
  meas_value: 0.58
- mutation_label: "G24C U49C"
  meas_value: 0.46
- mutation_label: "G6U U74G"
  meas_value: 0.4
- mutation_label: "G16A A20G"
  meas_value: 0.24
- mutation_label: "G36A A56G"
  meas_value: 0.19
- mutation_label: "A47U U74C"
  meas_value: 1.14
- mutation_label: "U41A C68A"
  meas_value: 0.17
- mutation_label: "A5C U54C"
  meas_value: 1.09
- mutation_label: "U41G U43A"
  meas_value: 0.28
- mutation_label: "A47G A56U"
  meas_value: 0.45
- mutation_label: "G22A A47G"
  meas_value: 0.48
- mutation_label: "C39U U43A"
  meas_value: 1.12
- mutation_label: "A2G G33U"
  meas_value: 0.3
- mutation_label: "C39U A47U"
  meas_value: 0.42
